# MEASUREMENT_TARGET: Tyrosyl-DNA phosphodiesterase 1 (Homo sapiens, UniProt Q9NUW8)
# Sequence (Q9NUW8 whole entry): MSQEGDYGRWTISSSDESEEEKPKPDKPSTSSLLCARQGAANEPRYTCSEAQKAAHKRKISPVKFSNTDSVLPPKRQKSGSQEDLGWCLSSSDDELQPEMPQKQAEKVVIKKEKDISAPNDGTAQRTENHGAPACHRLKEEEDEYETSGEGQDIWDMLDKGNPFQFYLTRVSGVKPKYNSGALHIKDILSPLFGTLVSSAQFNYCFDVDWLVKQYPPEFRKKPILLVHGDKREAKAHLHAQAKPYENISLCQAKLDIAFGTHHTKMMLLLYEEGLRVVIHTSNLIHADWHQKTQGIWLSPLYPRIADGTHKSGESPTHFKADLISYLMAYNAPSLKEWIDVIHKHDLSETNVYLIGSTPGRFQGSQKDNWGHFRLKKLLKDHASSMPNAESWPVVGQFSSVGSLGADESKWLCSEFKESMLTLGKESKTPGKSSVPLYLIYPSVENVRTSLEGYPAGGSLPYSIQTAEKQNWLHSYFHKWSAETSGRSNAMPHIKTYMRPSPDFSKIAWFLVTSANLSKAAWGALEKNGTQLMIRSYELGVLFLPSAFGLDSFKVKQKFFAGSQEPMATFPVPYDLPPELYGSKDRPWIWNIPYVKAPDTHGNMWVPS
# PROTOCOL: Reversal of Tdp1-mediated drug resistance in human MCF7 cells assessed as camptothecin CC50 at 5 uM measured after 72 hrs by MTT assay (reference value: 1430 +/- 430 nM)
# Type: cell-based
READOUT: CC50 (nM)

MOLECULE: Cc1cc(=O)oc2cc(OCC3=CC[C@@H]4C[C@H]3C4(C)C)ccc12
MEASUREMENT_TARGET: Tyrosyl-DNA phosphodiesterase 1 (Homo sapiens, UniProt Q9NUW8)
TEST_VALUE: 320
//
MOLECULE: CC1(C)[C@H]2CC=C(CCOc3ccc4c5c(c(=O)oc4c3)CCCC5)[C@@H]1C2
MEASUREMENT_TARGET: Tyrosyl-DNA phosphodiesterase 1 (Homo sapiens, UniProt Q9NUW8)
TEST_VALUE: 2300
//
MOLECULE: CC1(C)[C@@H]2CC=C(COc3ccc4c5c(c(=O)oc4c3)CCC5)[C@H]1C2
MEASUREMENT_TARGET: Tyrosyl-DNA phosphodiesterase 1 (Homo sapiens, UniProt Q9NUW8)
TEST_VALUE: 180
//
MOLECULE: Cc1cc(=O)oc2cc(OCC3=CC[C@H]4C[C@@H]3C4(C)C)ccc12
MEASUREMENT_TARGET: Tyrosyl-DNA phosphodiesterase 1 (Homo sapiens, UniProt Q9NUW8)
TEST_VALUE: 340

----------
pIC50: −log10 of the molar value.
Below are molecules with their pIC50 as measured on Tyrosyl-DNA phosphodiesterase 1 (Homo sapiens).

MOLECULE: COc1cc(COc2ccc3c(C)cc(=O)oc3c2)cc(OC)c1OC
pIC50: < 5.00
--
MOLECULE: COc1cc(COc2ccc3c4c(c(=O)oc3c2)CCC4)cc(OC)c1OC
pIC50: < 5.00
--
MOLECULE: COc1cccc(COc2ccc3c(C)cc(=O)oc3c2)c1
pIC50: < 5.00
